Measured Target: Ribosomal protein S6 kinase alpha-6 (Homo sapiens);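 also: each value is a mean inhibition of RSK4 from a GSK PKIS panel screen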
Experimental Conditions: at 1 µM
Result Type: inhibition (%)
# number only, unit % dropped from output

# Compound, inhibition / %
measured = [
    ("O=C(O[C@H]1CN[C@H](C#Cc2cc3ncnc(Nc4ccc(Cc5ccccc5)cc4)c3s2)C1)N1CCOCC1", 1.25),
]

Asked: Would you kindly share the measured inhibition for `NC(=O)c1sc(-n2cnc3ccc(C(F)(F)F)cc32)cc1OCc1ccccc1Br` ?
Given back: 2.19

Asked: So what's the measured inhibition for this one? `COc1cc(Nc2nccc(Nc3ccc4c(C)n[nH]c4c3)n2)cc(OC)c1OC`
Given back: 2.74

Asked: Can you look up the measured inhibition of `CN(C)CCOc1ccc(-c2nc(-c3ccncc3)c(-c3ccc4c(c3)CC/C4=N\O)[nH]2)cc1` for me?
Given back: 2.06

Asked: Consider the compound shown here: `CCCN1CCC(c2ccc(Nc3nc(Nc4cc(F)ccc4C(N)=O)c4cc[nH]c4n3)c(OC)c2)CC1` What is its recorded inhibition?
Given back: 63.4
